Molecular target: T1, Recombinant human MMR (R&D systems) (human, UniProt P22897 19-1383)
T1 construct: Antigen of the PE-ELISA and the SPR; also called hMMR; recombinant hMMR
T1 sequence: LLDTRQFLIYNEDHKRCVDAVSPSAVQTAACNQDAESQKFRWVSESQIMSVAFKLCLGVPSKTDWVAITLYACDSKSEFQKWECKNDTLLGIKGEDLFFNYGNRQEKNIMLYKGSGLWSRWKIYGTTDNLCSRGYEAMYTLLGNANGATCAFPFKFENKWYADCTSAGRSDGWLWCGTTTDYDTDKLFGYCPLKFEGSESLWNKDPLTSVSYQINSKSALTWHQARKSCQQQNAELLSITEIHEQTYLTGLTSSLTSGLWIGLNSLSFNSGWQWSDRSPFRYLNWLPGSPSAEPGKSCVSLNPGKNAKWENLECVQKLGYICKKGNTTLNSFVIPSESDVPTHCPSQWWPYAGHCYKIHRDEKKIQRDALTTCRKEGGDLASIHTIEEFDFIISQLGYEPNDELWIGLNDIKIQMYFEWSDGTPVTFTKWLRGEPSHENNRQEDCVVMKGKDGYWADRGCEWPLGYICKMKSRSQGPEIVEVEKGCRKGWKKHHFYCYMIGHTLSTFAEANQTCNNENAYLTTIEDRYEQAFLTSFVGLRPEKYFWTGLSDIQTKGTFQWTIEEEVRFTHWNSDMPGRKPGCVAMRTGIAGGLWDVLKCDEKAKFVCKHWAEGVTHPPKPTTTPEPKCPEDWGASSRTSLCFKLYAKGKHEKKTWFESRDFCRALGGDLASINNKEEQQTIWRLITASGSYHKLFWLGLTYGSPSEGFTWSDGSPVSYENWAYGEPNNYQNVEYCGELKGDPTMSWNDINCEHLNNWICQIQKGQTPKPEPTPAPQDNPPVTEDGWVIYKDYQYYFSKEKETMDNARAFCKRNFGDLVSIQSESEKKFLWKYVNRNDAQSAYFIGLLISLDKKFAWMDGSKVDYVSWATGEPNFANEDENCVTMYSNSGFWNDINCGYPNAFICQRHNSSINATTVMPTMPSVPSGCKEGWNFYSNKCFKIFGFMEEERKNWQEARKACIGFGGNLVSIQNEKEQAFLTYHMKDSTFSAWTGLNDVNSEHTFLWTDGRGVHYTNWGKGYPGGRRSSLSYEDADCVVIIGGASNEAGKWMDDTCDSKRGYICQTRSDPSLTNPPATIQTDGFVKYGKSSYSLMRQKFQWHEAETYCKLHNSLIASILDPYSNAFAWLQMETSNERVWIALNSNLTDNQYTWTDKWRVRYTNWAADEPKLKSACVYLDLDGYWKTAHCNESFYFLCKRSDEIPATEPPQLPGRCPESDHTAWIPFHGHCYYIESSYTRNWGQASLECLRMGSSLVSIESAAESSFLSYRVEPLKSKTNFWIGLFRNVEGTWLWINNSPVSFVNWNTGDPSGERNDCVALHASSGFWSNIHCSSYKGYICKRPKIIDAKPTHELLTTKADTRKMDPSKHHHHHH
Experiment: SPR, BIAcore T100; human MMR on CM5 chip, sdAb as analyte
measurementType: kon

1. NbhmMMRm3.49 (VHH, Produced from pMECS with C-terminal HA and 6xHis tag; also called NbhMMRm3.49) VHH: QVQLQESGGGLVQPGGSLRLSCAASGFSLDYYAIGWFRQAPGKEREGISCISYKGGSTTYADSVKGRFTISKDNAKNTAYLQMNSLKPEDTGIYSCAAGFVCYNYDYWGQGTQVTVSS : 440000 M⁻¹ s⁻¹
2. NbhmMMRm6.71 (VHH, Produced from pMECS with C-terminal HA and 6xHis tag) VHH: QVQLQESGGGLVQAGGSLRLSCAASGGTFDDSVIGWFRQAPGKEREGVSCISSNDGTTHYASPVKGRFTISSDNAKNTVYLQMNSLKPEDTAVYYCAAETPSIGSPCTSASYDYWGQGTQVTVSS : 190000 M⁻¹ s⁻¹
